assay: Dimensions (size, PDI) of DNPs co-assembled from IAJDs and Luc-mRNA by DLS; assay type: physicochemical; conditions: Table 17; DNPs used in vivo, IAJD 4 mg/mL, Luc-mRNA 0.10 mg/mL, acetate pH 4.0
property_name: PDI

molecule	PDI
CCCCCCCCCCCCOc1cc(COC(=O)CCCN2CCN(CCO)CC2)cc(OCCCCCCCCCCC)c1	0.280
CCCCCCCCCCCCCCCCOc1cc(COC(=O)CCCN2CCN(C)CC2)cc(OCCCCCCCCCCCCCCC)c1	0.304
CCCCCCCCCCCCCCCOc1cc(COC(=O)CCCN2CCN(C)CC2)cc(OCC(CC)CCCC)c1 (centres unmarked)	0.267
CCCCCCCCCCCCCOc1cc(COC(=O)CCCN2CCN(CCO)CC2)cc(OCCCCCCCCCCC)c1	0.367
CCCCCCCCCCCOc1cc(COC(=O)CCCN2CCN(CCO)CC2)cc(OCC(CC)CCCC)c1 (centres unmarked)	0.271

P. CCCCCCCCCCCCCCOc1cc(COC(=O)CCCN2CCN(CCO)CC2)cc(OCCCCCCCCCCC)c1
Q. CCCCCCCCCCCCCCCCOc1cc(COC(=O)CCCN2CCN(CCO)CC2)cc(OCCCCCCCCCCC)c1
Ask: Parameter check: reported PDI is higher for which label, P or Q ? Indicate your choice by writing its label.
Result: Q
(Q: 0.474, P: 0.300)

P. CCCCCCCCCCCCCCCCCCOc1cc(COC(=O)CCCN2CCN(CCO)CC2)cc(OCCCCCCCCCCCCCCC)c1
Q. CCCCCCCCCCCCCOc1cc(COC(=O)CCCN2CCN(C)CC2)cc(OCC(CC)CCCC)c1 (centres unmarked)
Ask: Recorded PDI values differ for P and Q ; which one is higher? Returns: label corresponding to the selected item.
Result: P
(P: 0.407, Q: 0.235)
